targetSystem: hCB2 (Homo sapiens)
Sequence (P34972 whole entry): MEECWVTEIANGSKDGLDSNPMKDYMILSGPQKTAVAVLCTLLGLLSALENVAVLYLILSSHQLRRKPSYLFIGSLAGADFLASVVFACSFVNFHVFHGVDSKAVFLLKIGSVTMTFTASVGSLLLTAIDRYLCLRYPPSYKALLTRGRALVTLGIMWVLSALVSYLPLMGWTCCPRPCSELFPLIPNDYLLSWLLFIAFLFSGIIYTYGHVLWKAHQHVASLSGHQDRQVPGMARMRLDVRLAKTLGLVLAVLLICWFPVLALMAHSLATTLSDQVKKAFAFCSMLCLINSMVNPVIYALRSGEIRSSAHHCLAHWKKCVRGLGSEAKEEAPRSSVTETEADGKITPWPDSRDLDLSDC
assayProtocol: Agonism of CB2 receptors expressed in CHO cells, forskolin cAMP assay (Protocol IX.2)
Assay type: cell-based
Design: expressed in transfected cells; host or cells: CHO (h-CB2/CHO, G418-selected)
assayConditions: hCB2 Agonism IC50, h-CB2/CHO cells, cAMP
Procedure: IX. Assay for Determining Agonist and Antagonist Activity to CB1 and CB2 Receptors 2. Agonism of CB1/CB2 Receptors Expressed in CHO Cells h-CB1/CHO or h-CB2/CHO cells were grown in HAM's F12 DMEM medium (Sigma) with 10% FBS (Hyclone), 1% penicillin-streptomycin solution and 400 μg/ml of G418 (Sigma). […] At the end of incubation, cells were lysed using lysis reagent from the cAMP estimation kit and cAMP was quantitated by chemiluminescence method described in the manufacturer's instructions (DiscoveRX). […]
readoutType: IC50 (nM)
Write the value in nM as a bare number.

## Input Would you mind telling me what IC50 value was observed for O=C(NC1CCCCC1)c1nn(-c2ccccc2Cl)c2c1C1CCC2C1 (stereo not shown) [Example 206] ?
## Output 10.5

## Input Would you mind telling me what IC50 value was observed for O=C(NNc1cccc(F)c1)c1nn(-c2ccc(Cl)cc2Cl)c2c1C1CCC2C1 (stereo not shown) [Example 266] ?
## Output 14

## Input Would you mind telling me what IC50 value was observed for O=C(NCc1ccccc1)c1n[nH]c2c1C1CC3CC(CC2C3)C1 [Example 186] ?
## Output 8.51

## Input Would you mind telling me what IC50 value was observed for CN(NC(=O)c1nn(-c2ccc(Cl)cc2)c2c1C1CCC2C1)C1CCCCC1 (stereo not shown) [Example 213] ?
## Output 12.7
